Reference source: PubChem BioAssay

- target.or.system: Alpha-2C adrenergic receptor (Homo sapiens)
- assay.protocol: modulators of alpha2C/GIRK thallium flux, primary screen, cell-based, HEK293 alpha2C/GIRK1/2 (AID 624);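 further: slope of fluorescence ratio to pre-addition baseline per second over 15 to 24 s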
- protocol.conditions: thallium flux BTC fluorescence, at 10 µM, actives lie on both sides
Could you please classify the records by slope using these ranges: range 1 (below 0.005), range 2 (0.005 to below 0.006), range 3 (0.006 or more)

Here's what some known entries look like.
>>> df
                                   molecule  answer_label
0  O=C(CN1C(=O)CCS(=O)(=O)c2ccccc21)NCc1ccc(F)cc1       range 2
1  CCn1c(SCC(=O)Nc2cc(C)ccc2C)nc2c(c1=O)SC(C)C2 (stereo not given)       range 3
2  COc1cc(NC(=O)CN(c2cc(C)cc(C)c2)S(=O)(=O)c2c(C)noc2C)cc(OC)c1       range 3

Turning to the following molecule.
Inquiry: Exercise: read the entry "O=C(Cn1ncc2c1-c1ccccc1OC2)N1CCc2ccccc21" and state which class it falls under.
Reply text: range 3
